species: Rattus norvegicus; experiment: Relative activity to release calcium from permeabilized pancreatic cells (RINm5F); type: functional
Response key: Met means Relative activity >= 1; Not met means Relative activity < 1.

Some entries whose results are on file:
INSERT INTO measurements (smiles_string, assigned_label) VALUES
  ('O=P(O)(O)O[C@@H]1[C@H](O)[C@@H](O[C@H]2[C@@H](OP(=O)(O)O)[C@H](n3ccnc3)O[C@@H]2CO)O[C@@H](CO)[C@H]1OP(=O)(O)O', 'Met'),
  ('CO[C@@H]1O[C@H](CO)[C@@H](O[C@H]2O[C@@H](CO)[C@@H](OP(=O)(O)O)[C@H](OP(=O)(O)O)[C@@H]2O)[C@H]1OP(=O)(O)O', 'Not met'),
  ('O=P(O)(O)OCCO[C@H]1O[C@@H](CO)[C@@H](OP(=O)(O)O)[C@H](OP(=O)(O)O)[C@@H]1O', 'Not met');

Has O=P(O)(O)O[C@@H]1[C@H](O)[C@@H](O[C@H]2[C@@H](OP(=O)(O)O)[C@H](n3cnc4cncnc43)O[C@@H]2CO)O[C@@H](CO)[C@H]1OP(=O)(O)O a recorded Relative activity greater than or equal to 1?
Met

Reported Relative activity reaches at least 1 for Nc1ncnc2c1ncn2[C@@H]1O[C@H](CO)[C@@H](O[C@H]2O[C@@H](CO)[C@@H](OP(=O)(O)O)[C@H](OP(=O)(O)O)[C@@H]2O)[C@H]1OP(=O)(O)O ?
Met
